assay: In vitro metabolic blocking of HCV NS3/4a protease inhibitors by compound of formula (II) in human liver microsomes; assay type: in vitro ADME; settings: 3 μM test compound + 10 μM compound of formula (II), human liver microsomes 1 mg/ml, 37° C., 120 min; % of initial concentration; mean of two independent experiments
parameter measured: % Detected Compound, Incubation time: 120′, Compound of formula (II) (%)

The cases that follow already have their % Detected Compound, Incubation time: 120′, Compound of formula (II) on record.
{"molecule": "COc1ccc2c(O[C@@H]3C[C@H]4C(=O)N[C@]5(C(=O)NS(=O)(=O)C6CC6)C[C@H]5/C=C\\CCCCCCC(=O)N4C3)cc(-c3nc(C(C)C)cs3)nc2c1 [Compound 26]", "measured number": 101}
{"molecule": "COc1ccc2c(O[C@@H]3C[C@H]4C(=O)N[C@]5(C(=O)NS(=O)(=O)C6CC6)C[C@H]5/C=C\\CCCCN(C)C(=O)N4C3)cc(-c3nc(C(C)C)cs3)nc2c1 [Compound 21]", "measured number": 135}

[a] COc1ccc2c(O[C@@H]3C[C@H]4C(=O)N[C@]5(C(=O)O)C[C@H]5/C=C\CCCCC[C@H](NC(=O)OC5CCCC5)C(=O)N4C3)cc(-c3csc(NC(C)C)n3)nc2c1 [BILN-2061, reference compound]
[b] COc1ccc2c(O[C@@H]3C[C@H]4C(=O)N[C@]5(C(=O)NS(=O)(=O)C6CC6)C[C@H]5/C=C\CCCCCNC(=O)N4C3)cc(-c3nc(C(C)C)cs3)nc2c1 [Compound 18]
query: Please indicate which item has the smaller measured % Detected Compound, Incubation time: 120′, Compound of formula (II): a versus b State your choice using its label.
result: a

---

assay: In vitro metabolic blocking of HCV NS3/4a protease inhibitors by compound of formula (II) in human liver microsomes; type: in vitro ADME; details: 3 μM test compound, human liver microsomes 1 mg/ml, 37° C., 30 min, no booster; % of initial concentration; mean of two independent experiments
parameter measured: % Detected Compound, Incubation time: 30′, No Booster (%)

The cases that follow already have their % Detected Compound, Incubation time: 30′, No Booster on record.
{"molecule": "COc1ccc2c(O[C@@H]3C[C@H]4C(=O)N[C@]5(C(=O)NS(=O)(=O)C6CC6)C[C@H]5/C=C\\CCCCCNC(=O)N4C3)cc(-c3nc(C(C)C)cs3)nc2c1", "measured number": 42}
{"molecule": "COc1ccc2c(O[C@@H]3C[C@H]4C(=O)N[C@]5(C(=O)NS(=O)(=O)C6CC6)C[C@H]5/C=C\\CCCCN(C)C(=O)N4C3)cc(-c3nc(C(C)C)cs3)nc2c1", "measured number": 109}
{"molecule": "COc1ccc2c(O[C@@H]3C[C@H]4C(=O)N[C@]5(C(=O)NS(=O)(=O)C6CC6)C[C@H]5/C=C\\CCCCN(C)C(=O)[C@@H]4C3)cc(-c3nc(C(C)C)cs3)nc2c1", "measured number": 141}

[A] COc1ccc2c(O[C@@H]3C[C@H]4C(=O)N[C@]5(C(=O)O)C[C@H]5/C=C\CCCCC[C@H](NC(=O)OC5CCCC5)C(=O)N4C3)cc(-c3csc(NC(C)C)n3)nc2c1 [BILN-2061, reference compound]
[B] COc1ccc2c(O[C@@H]3C[C@H]4C(=O)N[C@]5(C(=O)NS(=O)(=O)C6CC6)C[C@H]5/C=C\CCCCCCC(=O)N4C3)cc(-c3nc(C(C)C)cs3)nc2c1
query: Please indicate which item has the smaller measured % Detected Compound, Incubation time: 30′, No Booster: A versus B State your choice using its label.
result: B
(B: 16%, A: 129%)

---

experiment: In vitro metabolic blocking of HCV NS3/4a protease inhibitors by compound of formula (II) in human liver microsomes; type: in vitro ADME; details: 3 μM test compound, human liver microsomes 1 mg/ml, 37° C., 120 min, no booster; % of initial concentration; mean of two independent experiments
parameter measured: % Detected Compound, Incubation time: 120′, No Booster (%)

[I] COc1ccc2c(O[C@@H]3C[C@H]4C(=O)N[C@]5(C(=O)NS(=O)(=O)C6CC6)C[C@H]5/C=C\CCCCCNC(=O)N4C3)cc(-c3nc(C(C)C)cs3)nc2c1
[II] COc1ccc2c(O[C@@H]3C[C@H]4C(=O)N[C@]5(C(=O)NS(=O)(=O)C6CC6)C[C@H]5/C=C\CCCCN(C)C(=O)N4C3)cc(-c3nc(C(C)C)cs3)nc2c1
[III] COc1ccc2c(O[C@@H]3C[C@H]4C(=O)N[C@]5(C(=O)O)C[C@H]5/C=C\CCCCC[C@H](NC(=O)OC5CCCC5)C(=O)N4C3)cc(-c3csc(NC(C)C)n3)nc2c1 [BILN-2061, reference compound]
query: List the compounds shown above again, sorted by falling % Detected Compound, Incubation time: 120′, No Booster values. Ranked list of labels, please, in the requested order.
result: III, II, I
(III: 76%, II: 25%, I: 0%)

---

assay: In vitro metabolic blocking of HCV NS3/4a protease inhibitors by compound of formula (II) in human liver microsomes; type: in vitro ADME; details: 3 μM test compound + 10 μM compound of formula (II), human liver microsomes 1 mg/ml, 37° C., 30 min; % of initial concentration; mean of two independent experiments
parameter measured: % Detected Compound, Incubation time: 30′, Compound of formula (II) (%)

{"molecule": "COc1ccc2c(O[C@@H]3C[C@H]4C(=O)N[C@]5(C(=O)NS(=O)(=O)C6CC6)C[C@H]5/C=C\\CCCCN(C)C(=O)[C@@H]4C3)cc(-c3nc(C(C)C)cs3)nc2c1", "measured number": 166}
{"molecule": "COc1ccc2c(O[C@@H]3C[C@H]4C(=O)N[C@]5(C(=O)NS(=O)(=O)C6CC6)C[C@H]5/C=C\\CCCCCCC(=O)N4C3)cc(-c3nc(C(C)C)cs3)nc2c1", "measured number": 128}
{"molecule": "COc1ccc2c(O[C@@H]3C[C@H]4C(=O)N[C@]5(C(=O)O)C[C@H]5/C=C\\CCCCC[C@H](NC(=O)OC5CCCC5)C(=O)N4C3)cc(-c3csc(NC(C)C)n3)nc2c1 [BILN-2061, reference compound]", "measured number": 163}
{"molecule": "COc1ccc2c(O[C@@H]3C[C@H]4C(=O)N[C@]5(C(=O)NS(=O)(=O)C6CC6)C[C@H]5/C=C\\CCCCCNC(=O)N4C3)cc(-c3nc(C(C)C)cs3)nc2c1", "measured number": 131}
{"molecule": "COc1ccc2c(O[C@@H]3C[C@H]4C(=O)N[C@]5(C(=O)NS(=O)(=O)C6CC6)C[C@H]5/C=C\\CCCCN(C)C(=O)N4C3)cc(-c3nc(C(C)C)cs3)nc2c1", "measured number": 151}

Cited source for all entries: patent US20120220520A1
